- TESTED ON: SMARCA4 (Homo sapiens, UniProt P51532)
- Construct: endogenous in cells; host or cells: MV4-11
- Sequence (P51532 whole entry): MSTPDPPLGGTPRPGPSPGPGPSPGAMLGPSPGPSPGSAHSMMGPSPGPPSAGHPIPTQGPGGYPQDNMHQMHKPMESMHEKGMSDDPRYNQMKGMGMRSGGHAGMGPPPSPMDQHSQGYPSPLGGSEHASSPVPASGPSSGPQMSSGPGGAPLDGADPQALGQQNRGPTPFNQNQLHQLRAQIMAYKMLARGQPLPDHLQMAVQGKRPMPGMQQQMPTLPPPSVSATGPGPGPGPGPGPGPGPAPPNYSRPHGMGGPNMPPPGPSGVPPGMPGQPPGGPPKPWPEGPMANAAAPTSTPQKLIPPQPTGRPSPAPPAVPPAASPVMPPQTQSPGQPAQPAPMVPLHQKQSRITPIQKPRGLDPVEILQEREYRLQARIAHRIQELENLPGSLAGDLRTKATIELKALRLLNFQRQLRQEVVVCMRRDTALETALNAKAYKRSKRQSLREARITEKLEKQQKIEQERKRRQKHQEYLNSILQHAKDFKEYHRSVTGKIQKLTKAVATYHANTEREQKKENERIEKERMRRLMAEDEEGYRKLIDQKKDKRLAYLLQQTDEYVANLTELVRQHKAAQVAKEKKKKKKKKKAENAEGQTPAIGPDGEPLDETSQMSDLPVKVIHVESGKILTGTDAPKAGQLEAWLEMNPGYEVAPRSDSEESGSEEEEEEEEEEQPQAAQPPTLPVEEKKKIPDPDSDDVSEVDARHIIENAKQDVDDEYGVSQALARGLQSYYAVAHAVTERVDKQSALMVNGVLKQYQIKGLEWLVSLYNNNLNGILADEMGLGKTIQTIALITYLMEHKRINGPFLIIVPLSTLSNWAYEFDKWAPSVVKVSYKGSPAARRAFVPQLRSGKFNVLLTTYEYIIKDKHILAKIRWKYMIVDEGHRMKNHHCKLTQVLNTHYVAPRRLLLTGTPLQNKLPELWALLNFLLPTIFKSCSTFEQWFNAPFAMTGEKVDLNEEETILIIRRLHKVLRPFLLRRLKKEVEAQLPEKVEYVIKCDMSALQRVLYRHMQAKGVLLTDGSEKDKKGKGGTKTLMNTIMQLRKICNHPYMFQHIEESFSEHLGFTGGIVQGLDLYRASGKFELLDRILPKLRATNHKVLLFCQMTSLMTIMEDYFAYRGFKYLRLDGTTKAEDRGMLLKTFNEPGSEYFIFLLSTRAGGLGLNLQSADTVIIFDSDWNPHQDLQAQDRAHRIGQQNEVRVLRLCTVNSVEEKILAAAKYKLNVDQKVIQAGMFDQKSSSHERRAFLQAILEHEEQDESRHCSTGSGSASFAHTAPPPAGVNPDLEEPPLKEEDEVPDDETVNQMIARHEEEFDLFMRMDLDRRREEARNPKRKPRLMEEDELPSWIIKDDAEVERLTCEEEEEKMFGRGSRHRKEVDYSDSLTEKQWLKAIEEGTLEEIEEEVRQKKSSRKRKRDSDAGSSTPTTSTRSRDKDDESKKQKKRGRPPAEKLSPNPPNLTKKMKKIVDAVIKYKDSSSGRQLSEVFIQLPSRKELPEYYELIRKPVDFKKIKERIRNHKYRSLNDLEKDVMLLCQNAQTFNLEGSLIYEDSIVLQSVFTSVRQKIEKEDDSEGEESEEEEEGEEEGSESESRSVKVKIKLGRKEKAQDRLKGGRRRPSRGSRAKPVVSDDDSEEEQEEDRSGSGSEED
- ASSAY NAME: SMARCA4 Western blot MV4-11 degradation
- Type: cell-based
- ASSAY CONTEXT: MV4-11 cells, 24 hours, read-out: SMARCA4 WB MV411 degradation 24h: Average Dmax %
compounds and their reported Dmax

Q) Which Dmax is reported for this compound? Cc1ncsc1-c1ccc(CNC(=O)[C@@H]2C[C@@H](O)CN2C(=O)[C@@H](NC(=O)[C@H]2CC[C@@H](c3cnc(N4CCC(c5c[nH]c6nnc(-c7ccccc7O)cc56)CC4)nc3)CC2)C(C)(C)C)cc1
A) > 90%

Further cases:
Q) Given the entry Cn1c(=O)n(C2CCC(=O)NC2=O)c2ccc(CCCCCCCCCN3CCC(c4c[nH]c5nnc(-c6ccccc6O)cc45)CC3)cc21 (centres unmarked) , report its measured Dmax.
A) < 50%

Q) Follow-up entry: Cc1ncsc1-c1ccc(CNC(=O)[C@@H]2C[C@@H](O)CN2C(=O)[C@@H](NC(=O)C2(F)CC2)C(C)(C)C)c(OCCN2CCC(c3c[nH]c4nnc(-c5ccccc5O)cc34)CC2)c1
A) 70 to 90%

Q) How about this compound: Cn1c(=O)n(C2CCC(=O)NC2=O)c2cccc(CN3CCC(c4c[nH]c5nnc(-c6ccccc6O)cc45)CC3)c21 (centres unmarked)
A) < 50%

Q) Another: Cn1c(=O)n(C2CCC(=O)NC2=O)c2cccc(CCCN3CCC(c4c[nH]c5nnc(-c6ccccc6O)cc45)CC3)c21 (centres unmarked)
A) < 50%

---

Reported Dmax values follow for various compounds
- TESTED ON: SMARCA2 (Homo sapiens)
- ASSAY NAME: MSD SMARCA2 degradation in A549 cell line
- Assay type: cell-based
- Set-up: endogenous in cells; host or cells: A549
- ASSAY CONTEXT: A549 cells, 24 hours
- Procedure: Example 9. MSD SMARCA2 Degradation in A549 Cell Line Cells were seeded into 96-well plates (A549 cells: 2×10^4 cells/well/100 ul media) abd incubated overnight. […] The MSD plate was washed three times with 150 ul/well of TBST and 150 ul/well of 2×MSD reading buffer diluted from 4× (MSD, R92TC-2) with water was added. Lastly, the MSD instrument was read.

Here's what some known entries look like.
Q) Dmax for Cc1ncsc1-c1ccc(CNC(=O)[C@@H]2C[C@@H](O)CN2C(=O)[C@@H](NC(=O)CN2CCC(c3cnc(N4CCC(c5c[nH]c6nnc(-c7ccccc7O)cc56)CC4)nc3)CC2)C(C)(C)C)cc1 ?
A) 70 to 90%

Q) Again, but for Cc1ncsc1-c1ccc(CNC(=O)[C@@H]2C[C@@H](O)CN2C(=O)[C@@H](NC(=O)CCCCCN(C)Cc2cnc(N3CCC(c4c[nH]c5nnc(-c6ccccc6O)cc45)CC3)nc2)C(C)(C)C)cc1
A) < 50%

Q) Now consider Cc1ncsc1-c1ccc(CNC(=O)[C@@H]2C[C@@H](O)CN2C(=O)[C@@H](NC(=O)CN(C)Cc2cnc(N3CCC(c4c[nH]c5nnc(-c6ccccc6O)cc45)CC3)nc2)C(C)(C)C)cc1 and answer again.
A) < 50%

Q) // repeat for Cc1ncsc1-c1ccc(CNC(=O)[C@@H]2C[C@@H](O)CN2C(=O)[C@@H](NC(=O)CCCN(C)Cc2cnc(N3CCC(c4c[nH]c5nnc(-c6ccccc6O)cc45)CC3)nc2)C(C)(C)C)cc1 and report
A) < 50%

Others:
Q) Reported Dmax, compound CN(CC#Cc1cnc(N2CCC(c3c[nH]c4nnc(-c5ccccc5O)cc34)CC2)nc1)CCCc1ccc2c(c1)n(C)c(=O)n2C1CCC(=O)NC1=O (stereo not shown) : ____
A) < 50%

Q) Same question, Cc1ncsc1-c1ccc(CNC(=O)[C@@H]2C[C@@H](O)CN2C(=O)[C@@H](NC(=O)CN2CCC(c3cc(N4CCC(c5c[nH]c6nnc(-c7ccccc7O)cc56)CC4)ncn3)CC2)C(C)(C)C)cc1 this time
A) < 50%

Q) Let us now turn to NCC#Cc1cnc(N2CCC(c3c[nH]c4nnc(-c5ccccc5O)cc34)CC2)nc1
A) < 50%

Q) One more compound: Cc1ncsc1-c1ccc(CNC(=O)[C@@H]2C[C@@H](O)CN2C(=O)[C@@H](NC(=O)C2(F)CC2)C(C)(C)C)c(OCCN2CCC(c3c[nH]c4nnc(-c5ccccc5O)cc34)CC2)c1
A) < 50%

Q) What do we get for Cc1ncsc1-c1ccc(CNC(=O)[C@@H]2C[C@@H](O)CN2C(=O)[C@@H](NC(=O)[C@H]2CC[C@@H](c3cnc(N4CCC(c5c[nH]c6nnc(-c7ccccc7O)cc56)CC4)nc3)CC2)C(C)(C)C)cc1 ?
A) 70 to 90%

Q) Try Cc1ncsc1-c1ccc(CNC(=O)[C@@H]2C[C@@H](O)CN2C(=O)[C@@H](NC(=O)C2(F)CC2)C(C)(C)C)c(OCCCCCCCCN2CCC(c3c[nH]c4nnc(-c5ccccc5O)cc34)CC2)c1 next.
A) < 50%

---

- TESTED ON: SMARCA2 (Homo sapiens, UniProt P51531)
- Sequence (P51531 whole entry): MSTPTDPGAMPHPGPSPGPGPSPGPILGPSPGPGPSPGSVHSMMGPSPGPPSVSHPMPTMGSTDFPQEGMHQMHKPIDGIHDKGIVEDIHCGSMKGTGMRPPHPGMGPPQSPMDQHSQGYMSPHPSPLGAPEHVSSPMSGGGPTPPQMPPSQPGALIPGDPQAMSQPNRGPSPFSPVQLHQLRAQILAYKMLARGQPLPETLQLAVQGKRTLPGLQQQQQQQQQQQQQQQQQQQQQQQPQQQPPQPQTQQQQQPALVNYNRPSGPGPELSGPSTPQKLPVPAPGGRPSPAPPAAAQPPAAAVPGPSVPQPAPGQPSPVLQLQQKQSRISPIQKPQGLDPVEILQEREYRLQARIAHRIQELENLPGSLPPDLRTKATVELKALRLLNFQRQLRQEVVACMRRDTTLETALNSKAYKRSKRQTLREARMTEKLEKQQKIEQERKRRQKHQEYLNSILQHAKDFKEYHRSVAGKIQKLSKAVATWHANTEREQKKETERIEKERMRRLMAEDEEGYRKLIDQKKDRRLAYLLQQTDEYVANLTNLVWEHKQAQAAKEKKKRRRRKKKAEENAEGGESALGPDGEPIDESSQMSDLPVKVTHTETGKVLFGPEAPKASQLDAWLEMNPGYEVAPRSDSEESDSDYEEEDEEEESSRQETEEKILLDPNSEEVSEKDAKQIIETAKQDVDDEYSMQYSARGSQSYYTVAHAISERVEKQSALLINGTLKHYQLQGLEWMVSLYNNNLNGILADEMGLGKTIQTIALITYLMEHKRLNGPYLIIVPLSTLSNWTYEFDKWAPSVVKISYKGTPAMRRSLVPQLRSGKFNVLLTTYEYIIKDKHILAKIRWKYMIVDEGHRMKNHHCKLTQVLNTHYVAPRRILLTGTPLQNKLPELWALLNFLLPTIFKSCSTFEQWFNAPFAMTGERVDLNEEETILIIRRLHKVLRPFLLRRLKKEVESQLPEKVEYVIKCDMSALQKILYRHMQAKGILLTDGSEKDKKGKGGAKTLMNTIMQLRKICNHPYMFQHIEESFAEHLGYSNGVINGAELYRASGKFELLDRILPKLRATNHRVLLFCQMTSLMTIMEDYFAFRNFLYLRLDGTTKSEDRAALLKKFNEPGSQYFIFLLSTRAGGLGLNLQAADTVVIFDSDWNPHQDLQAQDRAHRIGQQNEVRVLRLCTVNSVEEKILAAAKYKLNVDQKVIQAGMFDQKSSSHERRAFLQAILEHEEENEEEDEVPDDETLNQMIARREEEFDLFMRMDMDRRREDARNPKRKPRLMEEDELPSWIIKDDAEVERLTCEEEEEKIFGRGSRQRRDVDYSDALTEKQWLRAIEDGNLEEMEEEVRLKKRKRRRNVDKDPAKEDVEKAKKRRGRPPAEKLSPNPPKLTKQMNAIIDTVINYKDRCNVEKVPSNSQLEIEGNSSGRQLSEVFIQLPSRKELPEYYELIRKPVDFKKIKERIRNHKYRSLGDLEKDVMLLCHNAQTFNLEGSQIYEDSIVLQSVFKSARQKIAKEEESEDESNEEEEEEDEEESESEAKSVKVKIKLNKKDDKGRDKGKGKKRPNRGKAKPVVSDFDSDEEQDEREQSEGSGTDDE
- ASSAY NAME: MSD SMARCA2 degradation in A549 cell line
- Format: cell-based
- Parameters: endogenous in cells; host or cells: A549
- ASSAY CONTEXT: A549 cells, 24 hours
READOUT TYPE: Dmax

Use the examples below as a reference point.
Q) For the compound shown here, Cc1ncsc1-c1ccc(CNC(=O)[C@@H]2C[C@@H](O)CN2C(=O)[C@@H](NC(=O)C2(F)CC2)C(C)(C)C)c(OCCCCCCN2CCC(c3c[nH]c4nnc(-c5ccccc5O)cc34)CC2)c1 , give the reported Dmax.
A) < 50%

Q) Now consider CN(CCCc1cnc(N2CCC(c3c[nH]c4nnc(-c5ccccc5O)cc34)CC2)nc1)CCCc1ccc2c(c1)n(C)c(=O)n2C1CCC(=O)NC1=O (stereo not drawn) and answer again.
A) < 50%

# ---- query compound ----
Q) Entry Cc1ncsc1-c1ccc(CNC(=O)[C@@H]2C[C@@H](O)CN2C(=O)[C@@H](NC(=O)[C@H]2CC[C@H](c3cnc(N4CCC(c5c[nH]c6nnc(-c7ccccc7O)cc56)CC4)nc3)CC2)C(C)(C)C)cc1 : reported Dmax = ?
A) > 90%

---

Reported Dmax values for the following molecules.
- TESTED ON: SMARCA4 (Homo sapiens, UniProt P51532)
- Construct: endogenous in cells; host or cells: MV4-11
- ASSAY NAME: SMARCA4 Western blot MV4-11 degradation
- Type: cell-based
- ASSAY CONTEXT: MV4-11 cells, 24 hours, read-out: SMARCA4 WB MV411 degradation 24h: Average Dmax %

Q) Could you tell me which Dmax is on file for Cc1ncsc1-c1ccc(CNC(=O)[C@@H]2C[C@@H](O)CN2C(=O)[C@@H](NC(=O)CN2CCC(c3cc(N4CCC(c5c[nH]c6nnc(-c7ccccc7O)cc56)CC4)ncn3)CC2)C(C)(C)C)cc1 [I-54] ?
A) > 90%

Q) # iterate: Cc1ncsc1-c1ccc(CNC(=O)[C@@H]2C[C@@H](O)CN2C(=O)[C@@H](NC(=O)C2(F)CC2)C(C)(C)C)c(OCCCCCCCCN2CCC(c3c[nH]c4nnc(-c5ccccc5O)cc34)CC2)c1 [I-49]
A) 70 to 90%

Read the next record carefully.
Q) Returns the measured Dmax for the input molecule. Input: Cc1ncsc1-c1ccc(CNC(=O)[C@@H]2C[C@@H](O)CN2C(=O)[C@@H](NC(=O)CN2CCC(c3cnc(N4CCC(c5c[nH]c6nnc(-c7ccccc7O)cc56)CC4)nc3)CC2)C(C)(C)C)cc1 [I-53]
A) 70 to 90%
